- PROTOCOL: binders of probe aFGF2 on microarray, primary screen, stem cell growth factor project, biochemical, small-molecule microarray, fluorescence 635/667 (AID 1067);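 also: measures binding of biotinylated aFGF2 protein to printed compounds on slides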
- CONDITION LABEL: higher = more signal
Kind request: treat -0.1 as inclusive, so composite z-score at -0.1 or higher is Fulfilled, anything lower is Not fulfilled.

- CO[C@H]1COC(=O)[C@@H](C)NC(=O)CC=C[C@@H](C)[C@H](OC)COC(=O)CC=C[C@@H]1C: Not fulfilled

Input line: Is composite z-score at least -0.1? Consider O=C(CS)NCCCCCNC(=O)[C@H]1C[C@H]2C(=O)N3CCC[C@H]3C(=O)N2[C@H]1c1ccc(O)cc1
Output line: Fulfilled

Input line: Also C[C@@H]1NC(=O)CC=C[C@@H](C)[C@@H]2C=C[C@H](O)[C@@H](COC(=O)[C@H](C)NC(=O)CC=C[C@@H](C)[C@@H]3C=C[C@H](O)[C@@H](COC1=O)O3)O2 ?
Output line: Fulfilled

Input line: Also CC(C)(C)OC(=O)CC[C@]1(C(=O)NCCN2CCOCC2)N=C(c2ccc(OCCCO)cc2)O[C@H]1c1ccccc1CN=[N+]=[N-] ?
Output line: Fulfilled

Input line: Also CCCC/C=C/[C@H]([C@@H](O)Cc1ccccc1)N(CC#Cc1ccccc1)Cc1ccccc1Br ?
Output line: Not fulfilled

Input line: Also CCc1cccc(NC(=O)O[C@H]2[C@H](OC(=O)Nc3ccccc3)[C@@H](OC(=O)Nc3ccccc3)[C@@H](OC)O[C@@H]2CO)c1 ?
Output line: Fulfilled

Input line: Also COc1ccc([Si](C)(C)[C@@H]2[C@@H](CC(=O)N(CCO)Cc3ccccc3)O[C@]3(C(=O)N(Cc4cccc(N5CCC5=O)c4)c4ccccc43)[C@H]2C)cc1 ?
Output line: Not fulfilled

* * *

- PROTOCOL: adipocyte viability effects, profiling panel, cell-based, 3T3-L1 adipocytes, calcein-AM fluorescence, 48 h, basal (AID 1163); also: test concentration not given here
- CONDITION LABEL: 3T3-L1 adipocytes viability, higher = more signal
# label = bin(measured z-score), where bins are low: < 0.02; intermediate: ≥ 0.02 and < 1; high: ≥ 1

Please review the entries below; each comes with its answer.
* CCCNC(=O)[C@@H]1c2ccccc2C(=O)N(Cc2cc(F)cc(C(F)(F)F)c2)[C@H]1c1ccc(CO)cc1 | high
* COCCOC(=O)N1C(=O)[C@@]2(c3cc(C#CCC(C(=O)OC)C(=O)OC)ccc31)[C@H](C(=O)N1CCN(c3ncccn3)CC1)[C@H]1C(=O)O[C@H](c3ccccc3)[C@H](c3ccccc3)N1[C@@H]2c1ccc(O)cc1 | low
* O=C/C=C/c1ccccc1Cl | intermediate
* O=C(NCc1ccccc1)c1ccc(Br)cc1[N+](=O)[O-] | low
* CCCC=C(CCC)[C@@H](NC(=O)c1ccccc1)c1ccccc1 | low
* C=CCc1cccc([C@H]2N[C@H](C(=O)O)CC[C@@H]2C)c1 | intermediate
* C=C[C@H](OC)[C@@H](OC(=O)Nc1ccc(SC)cc1)c1ccc(OC)c(O)c1 | intermediate
* COc1ccc(CCNC(=O)[C@@]2(c3ccc([N+](=O)[O-])cc3)CC(=O)N(C(C)C)[C@@H]2c2ccc(CO)cc2)cc1 | high
* CCOC(=O)C1=CC[C@@H](c2ccccc2)N(S(=O)(=O)c2ccc(C)cc2)[C@H]1C | low
* C[C@H]1C2[C@H](Cc3ccccc3)NC(=O)[C@]23C(=O)N[C@H](Cc2ccccc2)C(=O)N[C@@H](Cc2ccccc2)C(=O)NC/C=C\C/C=C/C3[C@@H]2O[C@]12C (stereo not given in full) | intermediate

Input line: Hey, which category is CC(c1ccccc1)C(O)C1C=CC2C(=O)N(C)C(=O)C2N1N(c1ccccc1)c1ccccc1 (stereo not given) in, do you know?
Output line: low

Input line: Also C=CC[C@@]1(C(=O)N2CCOCC2)N=C(c2ccc(OCCCO)cc2)O[C@@H]1c1ccccc1 ?
Output line: high

Input line: Also COc1ccc([Si](C)(C)[C@@H]2[C@@H](CCO)O[C@]3(C(=O)N(Cc4ccc(NC(=O)[C@H](C)O)cc4)c4ccccc43)[C@H]2C)cc1 ?
Output line: high

Input line: Also Cc1ccc(N2C(=O)c3ccccc3[C@](C)(C(=O)NCC(C)C)[C@@H]2c2ccc(CO)cc2)nc1 ?
Output line: low
